# Test system: Aedes aegypti Cayman
# protocol_text: WHO paper contact assay, Aedes aegypti Cayman
# Format: in vivo
# experimental_parameters: papers 0.75% permethrin, 0.05% deltamethrin, 4% DDT, 0.1% bendiocarb, 1.0% fenitrothion, 4% dieldrin
readout_kind: percentage of survival (%)
Quick note: give the figure in %, leave out the unit.

Field percentage of survival (Aedes aegypti Cayman), entry COP(=S)(OC)Oc1ccc([N+](=O)[O-])c(C)c1 [Fenitrothion] : 100

Field percentage of survival (Aedes aegypti Cayman), entry CNC(=O)Oc1cccc2c1OC(C)(C)O2 [Bendiocarb] : 20

Field percentage of survival (Aedes aegypti Cayman), entry CC1(C)[C@H](C(=O)O[C@H](C#N)c2cccc(Oc3ccccc3)c2)[C@@H]1C=C(Br)Br [Deltamethrin] : 36

Field percentage of survival (Aedes aegypti Cayman), entry Clc1ccc(C(c2ccc(Cl)cc2)C(Cl)(Cl)Cl)cc1 [DDT] : 0

Field percentage of survival (Aedes aegypti Cayman), entry CC1(C)C(C=C(Cl)Cl)C1C(=O)OCc1cccc(Oc2ccccc2)c1 (stereo not drawn) [Permethrin] : 7

Field percentage of survival (Aedes aegypti Cayman), entry ClC1=C(Cl)[C@]2(Cl)[C@@H]3[C@@H]4C[C@@H]([C@H]5O[C@@H]45)[C@@H]3[C@@]1(Cl)C2(Cl)Cl [Dieldrin] : 95
